assay: Inhibition of notch signalling (unknown origin); set-up: species or system Homo sapiens
Test readout: IC50

Reported IC50 for "COc1cc(-c2nnc3n2CCC[C@]3(Oc2cc(F)c(F)c(F)c2)C(C)(C)O)ccc1-c1cnc(C)o1" : what is it?
≥ 10 µM

====

assay: Lipophilicity, logD of the compound; format: physicochemical; settings: octanol/water
Test readout: logD
Answers are plain numbers.

1. COc1cc(-c2nnc3n2CCC[C@]3(Oc2cc(F)c(F)c(F)c2)C(C)(C)O)ccc1-c1cnc(C)o1 | 3.2
2. COc1cc(-c2nnc3n2CCCC3(Cc2ccc(F)c(F)c2)C(=O)NCC(F)(F)F)ccc1-c1cnc(C)o1 (configuration not stated) | 3
3. COc1cc(-c2nnc3n2CCCC32OCc3c(cccc3C(F)(F)F)N(CC(F)(F)F)C2=O)ccc1-c1cnc(C)o1 (configuration not stated) | 2.9
4. COc1cc(-c2nnc3n2CCCC32OCc3c(Cl)cccc3N(CC(F)(F)F)C2=O)ccc1-c1cnc(C)o1 (configuration not stated) | 2.8
5. COc1cc(-c2nnc3n2CCCC3c2ccc(Cl)c(Cl)c2)ccc1-c1cnc(C)o1 (configuration not stated) | 3.2

Quick request: logD for each listed item, please.
1. COc1cc(-c2nnc3n2CCCC3(Oc2ccc(F)c(Cl)c2)C(C)(C)O)ccc1-c1cnc(C)o1 (configuration not stated)
2. COc1cc(-c2nnc3n2CCC[C@@]3(Oc2cc(F)c(F)c(F)c2)C(C)(C)O)ccc1-c1cnc(C)o1

1: 3.2; 2: 3.2

====

test: Modulation of gamma secretase in Wistar rat fetal brain-derived neuronal cell incubated for 3 days by ELISA; conditions: 72 h
Test readout: IC50 (nM)
Numbers only, in nM.

Reported IC50 for "COc1cc(/C=C2\CCCN([C@@H](C)c3ccc(F)cc3)C2=O)ccc1-n1cnc(C)c1" : what is it?
93

====

molecular target: Gamma-secretase; experiment: Modulation of gamma-secretase in human H4 cells expressing human APP assessed as reduction in amyloid beta42 level incubated for 22 hrs; format: cell-based
Test readout: IC50
Form field: result (number plus unit)

Reported IC50 for Cc1nsc(N2CCC(Nc3nc4c(-c5ccc(F)c(F)c5F)cccn4n3)C(F)(F)C2)n1 (stereo unspecified) : what is it?
143 nM

====

assay: Maximum concentration of drug in po dosed CF1 mouse brain and measured at 4 hrs by liquid chromatography and tandem mass spectrometry; format: ADME, organism-based; design: route oral, time 4 hrs
Test readout: Cmax (µM)
Numbers only, in µM.

Reported Cmax for "CC1CCN([C@H](c2ccc(F)cc2)c2ccc([C@@H](C)C(=O)O)cc2-c2ccc(C(F)(F)F)cc2)CC1" : what is it?
7.5

Cited source for all entries: ChEMBL document CHEMBL4673187
